The entries below are paired with their reported protein stability index.
B1: HDAC6 (parent)
chain: QEGLLDRCVSFQARFAEKEELMLV

variants of: B1; assay: protein stability index of a GFP-peptide fusion (GPS, HEK-293T) (PSI 1-6); higher = more stable; conditions: c terminus: a fixed tail appended;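 further: lentivirally expressed fusions sorted by FACS into six bins by GFP to DsRed ratio, PSI derived from sequencing read proportions per bin multiplied by bin number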

seq string: QEGLLDRCYSFQARFAEKEELMLV
protein stability index: 2.29
--
seq string: QEGLLDRCVSFLARFAEKEELMLV
protein stability index: 1.52
--
seq string: QEGLLDQCVSFQARFAEKEELMLV
protein stability index: 1.94
--
seq string: QEGLLHRCVSFQARFAEKEELMLV
protein stability index: 2.09
--
seq string: QEGLLDRCVSFQARFFEKEELMLV
protein stability index: 1.75
--
seq string: QEGLLDRCVSFQARFAEKEELMLF
protein stability index: 1.85
--
seq string: QEGLLDRCVSFQAYFAEKEELMLV
protein stability index: 2.24
--
seq string: QEGLLDRCVSFQARFHEKEELMLV
protein stability index: 1.41
--
seq string: QEGLLDRCVSFQDRFAEKEELMLV
protein stability index: 2.44
--
seq string: QEGLWDRCVSFQARFAEKEELMLV
protein stability index: 1.58
--
seq string: QEGLLDRSVSFQARFAEKEELMLV
protein stability index: 2.44
--
seq string: QEGLLDRCVSFQARFDEKEELMLV
protein stability index: 1.84
--
seq string: QKGLLDRCVSFQARFAEKEELMLV
protein stability index: 1.94
--
seq string: QEGLLDRCVSFQARFAEREELMLV
protein stability index: 1.45
--
seq string: QEGLLDRCVSFQKRFAEKEELMLV
protein stability index: 2.47
--
seq string: QELLLDRCVSFQARFAEKEELMLV
protein stability index: 1.64
--
seq string: DEGLLDRCVSFQARFAEKEELMLV
protein stability index: 1.85
--
seq string: QEGLLDRCVSFQARFAEKEELSLV
protein stability index: 3.43
--
seq string: QEGLLDRCVSFQARFAKKEELMLV
protein stability index: 1.72
--
seq string: QEGNLDRCVSFQARFAEKEELMLV
protein stability index: 2.06
--
seq string: CEGLLDRCVSFQARFAEKEELMLV
protein stability index: 1.39
--
seq string: LEGLLDRCVSFQARFAEKEELMLV
protein stability index: 2.33
